Where do these numbers come from? They come from the supplement of paper PMC10567573.

B1: BTBD1 (parent)
chain: FVLGKGRGAAAAGGPQRIPAHRFV

# Variants of: B1
# method_description: protein stability index of a GFP-peptide fusion (GPS, HEK-293T) (PSI 1-6); higher = more stable;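 also: lentivirally expressed fusions sorted by FACS into six bins by GFP to DsRed ratio, PSI derived from sequencing read proportions per bin multiplied by bin number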
# recorded_conditions: c terminus: a fixed tail appended
Rule: protein stability index of 2 or more gives 1; anything lower gives 0.

A11L    0
R7Y    0
G8H    1
G14M    0
G14H    0
G4Y    1
I18N    1
K5R    1

Reported protein stability index reaches at least 2 for `F1Y` ?
0

Item `G6P` with protein stability index of 2 or above?
0

Could you verify whether the entry `A10T` shows protein stability index of no less than 2?
0

Quick check, protein stability index >= 2? `G4D`
0

Record `G4T` ; criterion: protein stability index no lower than 2. Met?
0

Check if protein stability index >= 2 (inclusive). Item: `G6D`
0
